- target.of.assay: Tyrosine-protein kinase BTK (Homo sapiens)
- Sequence (Q06187 whole entry): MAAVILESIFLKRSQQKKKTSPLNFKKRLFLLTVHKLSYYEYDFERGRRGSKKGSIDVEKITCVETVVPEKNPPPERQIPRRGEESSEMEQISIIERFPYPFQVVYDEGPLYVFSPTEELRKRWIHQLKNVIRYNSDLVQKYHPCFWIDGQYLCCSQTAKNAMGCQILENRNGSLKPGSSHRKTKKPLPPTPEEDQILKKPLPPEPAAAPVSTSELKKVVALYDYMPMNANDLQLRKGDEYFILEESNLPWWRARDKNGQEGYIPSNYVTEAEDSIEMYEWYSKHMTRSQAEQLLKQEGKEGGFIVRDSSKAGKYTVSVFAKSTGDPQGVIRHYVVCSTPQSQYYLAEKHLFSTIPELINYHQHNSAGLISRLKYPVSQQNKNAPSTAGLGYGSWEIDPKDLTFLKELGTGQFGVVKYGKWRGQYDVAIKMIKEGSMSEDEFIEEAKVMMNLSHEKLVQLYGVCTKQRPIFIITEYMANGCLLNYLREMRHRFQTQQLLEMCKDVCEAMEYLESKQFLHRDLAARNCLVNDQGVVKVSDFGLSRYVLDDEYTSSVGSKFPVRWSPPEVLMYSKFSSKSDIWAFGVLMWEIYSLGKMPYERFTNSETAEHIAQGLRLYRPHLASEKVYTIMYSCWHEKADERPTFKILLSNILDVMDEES
- assay.notes: Inhibition of BTK (unknown origin)
measured.attribute: IC50 (nM)
Numbers only, in nM.

Notebook: Cc1c(NC(=O)c2ccc(C(C)(C)C)cc2)cccc1-c1cn(C)c(=O)c(Nc2ccc(C(=O)N3CCN(CCCCCCNC(=O)CNc4cccc5c4C(=O)N(C4CCC(=O)NC4=O)C5=O)CC3)cc2)n1 (stereo unspecified) , IC50 read as 5.1

// data source = ChEMBL document CHEMBL4665674
